Collected T/C values appear next to each entry.
System: L1210 leukemia ip in BDF1 mice, survival T/C
test description: NCI In Vivo Anticancer Drug Screen. Data for tumor model L1210 Leukemia (intraperitoneal) in B6D2F1 (BDF1) mice
experimental setup: endpoint: mean survival time; dose: 200.0 mg/kg/injection; schedule: Q04DX002 (ip); vehicle: Klucel (hydroxypropylcellulose) (HPC); higher = longer survival
Inconclusive results and toxic doses are left out.

The cases that follow already have their T/C on record.
>  <query smiles>
CNC(=O)NCCN(C)c1ccccc1

>  <T/C>
110 % of control

$$$$
>  <query smiles>
CCOC(C(=O)O)(c1ccccc1)c1ccccc1

>  <T/C>
97 % of control

$$$$

Note T/C for the molecule shown: O=C(Nc1cccc2ccccc12)C(Cl)Cl
93 % of control

----------
Test system: L1210 leukemia ip in BDF1 mice, survival T/C
test description: NCI In Vivo Anticancer Drug Screen. Data for tumor model L1210 Leukemia (intraperitoneal) in B6D2F1 (BDF1) mice
experimental setup: endpoint: mean survival time; dose: 50.0 mg/kg/injection; schedule: Q01DX009 (ip); vehicle: saline; higher = longer survival
Inconclusive results and toxic doses are left out.
Below, each entry is listed with its recorded T/C.

>  <molecule>
CC(C)[C@](O)(C(=O)OCC1=CC[N+]2([O-])CC[C@@H](O)[C@@H]12)[C@H](C)O (some centres not stated)

>  <T/C>
93 % of control

$$$$
>  <molecule>
CC(C)=CC(=O)CC(O)(C(F)(F)F)C(F)(F)Cl (configuration not stated)

>  <T/C>
92 % of control

$$$$
>  <molecule>
CCNC(C)C

>  <T/C>
93 % of control

$$$$
>  <molecule>
O=C(NCc1cnccn1)Nc1ccccc1

>  <T/C>
87 % of control

$$$$
>  <molecule>
CCOC(=O)C(=O)C(C#N)C(=O)OCC (configuration not stated)

>  <T/C>
98 % of control

$$$$

Tell me T/C reported for CNCC(C)(C)c1ccccc1
107 % of control

Give recorded T/C. C[n+]1ccc2ccccc2c1
105 % of control

In one line, give reported T/C of the entry NNC(=O)CCCc1ccccc1 .
103 % of control

Answer with reported T/C of CCN(CC)Cc1cc(Nc2c(C)cnc3cc(Cl)ccc23)ccc1O
90 % of control

// Input: Cc1cc(C)c(S(=O)(=O)O)cc1C . Output its T/C only.
92 % of control

Identify measured T/C associated with CN(C)CCCC1(C#N)c2ccccc2CCc2ccccc21
113 % of control

Please look at this molecule and report its T/C: CC1(Cl)C(=O)NC(=O)C1Cl (configuration not stated)
92 % of control

Entry CCN(CC)CCNc1ccc(CO)c2oc3ccccc3c(=O)c12 needs its T/C filled in; supply it.
99 % of control

Please report the measured T/C for C[n+]1ccc(Nc2ccc(NC(=O)c3ccc(Nc4cc[n+](C)c5ccc([N+](=O)[O-])cc45)cc3[N+](=O)[O-])cc2)cc1
120 % of control

Report T/C, nothing else, for this molecule: CN(CCCl)Cc1ccccc1
103 % of control

----------
Test system: L1210 leukemia ip in BDF1 mice, survival T/C
test description: NCI In Vivo Anticancer Drug Screen. Data for tumor model L1210 Leukemia (intraperitoneal) in B6D2F1 (BDF1) mice
experimental setup: endpoint: mean survival time; dose: 150.0 mg/kg/injection; schedule: Q01DX001 (ip); vehicle: other; higher = longer survival
Inconclusive results and toxic doses are left out.
readout label: T/C

Provide T/C value for the following molecule: O=C1C=C(S(=O)(=O)c2ccccc2)C(=O)c2ccccc21
98 % of control

----------
Tested on: L1210 leukemia ip in BDF1 mice, survival T/C
test description: NCI In Vivo Anticancer Drug Screen. Data for tumor model L1210 Leukemia (intraperitoneal) in B6D2F1 (BDF1) mice
experimental setup: endpoint: mean survival time; dose: 100.0 mg/kg/injection; schedule: Q04DX002 (ip); vehicle: Klucel (hydroxypropylcellulose) (HPC); higher = longer survival
Inconclusive results and toxic doses are left out.
readout label: T/C

// worked examples, T/C included
>  <compound>
O=C(N/N=C/c1cccc([N+](=O)[O-])c1)c1ccc(O)cc1

>  <readout label>
T/C

>  <result>
102 % of control

$$$$
>  <compound>
COC1OC2COC(c3ccccc3)OC2C(OC(C)=O)C1OC(C)=O (stereo unspecified)

>  <readout label>
T/C

>  <result>
95 % of control

$$$$
>  <compound>
CC(=C1C2CCC1C(C(=O)N(C)C)C2C(=O)N(C)C)C(Cl)(Cl)Cl (stereo unspecified)

>  <readout label>
T/C

>  <result>
94 % of control

$$$$
>  <compound>
CCOC(=O)C(=O)Nc1ncn[nH]1

>  <readout label>
T/C

>  <result>
96 % of control

$$$$
>  <compound>
S=C(Nc1ccccc1)Nc1ccccc1Cl

>  <readout label>
T/C

>  <result>
100 % of control

$$$$

The record that follows has no T/C shown yet.
Give the value of T/C reported for the following: CCOc1ccc(P2(=S)SP(=S)(c3ccc(OCC)cc3)S2)cc1 (stereo unspecified)
94 % of control

----------
System: L1210 leukemia ip in BDF1 mice, survival T/C
test description: NCI In Vivo Anticancer Drug Screen. Data for tumor model L1210 Leukemia (intraperitoneal) in B6D2F1 (BDF1) mice
experimental setup: endpoint: mean survival time; dose: 400.0 mg/kg/injection; schedule: Q01DX009 (ip); vehicle: saline with Tween-80; higher = longer survival
Experimental: The antitumor activity of compounds was measured in mice bearing transplantable tumors. Survival or tumor size were measured and the results are expressed as the measurement made in the treated group (T) divided by the measurement made in the vehicle treated control group (C). The tumor model used in this assay is L1210 Leukemia (intraperitoneal) in B6D2F1 (BDF1) mice
Inconclusive results and toxic doses are left out.
readout label: T/C

>  <compound>
CC(C)N(C(=O)COc1ccc(Cl)cc1Cl)c1ccccc1

>  <T/C>
124 % of control

$$$$
>  <compound>
C=CCN(CC=C)/N=N/c1[nH]ncc1C(=O)OCC

>  <T/C>
104 % of control

$$$$
>  <compound>
N#Cc1cc2c3c(c1)CCCN3CCC2

>  <T/C>
96 % of control

$$$$
>  <compound>
COC(=O)c1cc2ccccc2c2ccccc12

>  <T/C>
87 % of control

$$$$
>  <compound>
Cc1ccc(NC(=O)Oc2ccc(F)cc2Cl)cc1NC(=O)Oc1ccc(F)cc1Cl

>  <T/C>
86 % of control

$$$$

Answer with the recorded T/C for the compound listed here: Oc1ccc(N=Cc2ccc(C=Nc3ccc(O)cc3)cc2)cc1
105 % of control

Annotate the compound CC(C)CC(C)OC(C[N+](=O)[O-])C(Cl)(Cl)Cl (stereo not drawn) with its measured T/C.
93 % of control

Kindly indicate its recorded T/C. Item: CC(C)(C)NC(=O)Nc1ccccn1
104 % of control

Read the entry CCCCC(=O)Nc1cccc(O)c1 and write its reported T/C.
107 % of control

Indicate its recorded T/C; the compound in question is CCOC(=O)CNC(=O)OCCOc1ccccc1Cl
100 % of control

----------
System: L1210 leukemia ip in BDF1 mice, survival T/C
test description: NCI In Vivo Anticancer Drug Screen. Data for tumor model L1210 Leukemia (intraperitoneal) in B6D2F1 (BDF1) mice
experimental setup: endpoint: mean survival time; dose: 200.0 mg/kg/injection; schedule: Q04DX003 (ip); vehicle: saline with Tween-80; higher = longer survival
Toxic doses and inconclusive results are not listed.
readout label: T/C

>  <compound>
CC(C)N(C(=O)COc1ccc(Cl)cc1Cl)c1ccccc1

>  <subject of test>
L1210 leukemia ip in BDF1 mice, survival T/C

>  <T/C>
96 % of control

$$$$
>  <compound>
CCCCOCC(=O)OCCCC

>  <subject of test>
L1210 leukemia ip in BDF1 mice, survival T/C

>  <T/C>
94 % of control

$$$$
>  <compound>
CON1C(=O)C2(CCCCC2)C2=NOC3C(Br)CCCC231 (configuration not stated)

>  <subject of test>
L1210 leukemia ip in BDF1 mice, survival T/C

>  <T/C>
97 % of control

$$$$

Proceed to the following item.
Give the reported T/C for this compound. Cc1ccc(NC(=S)NNC(=S)NNc2ccccc2)cc1C
93 % of control

----------
Test system: L1210 leukemia ip in BDF1 mice, survival T/C
test description: NCI In Vivo Anticancer Drug Screen. Data for tumor model L1210 Leukemia (intraperitoneal) in B6D2F1 (BDF1) mice
experimental setup: endpoint: mean survival time; dose: 150.0 mg/kg/injection; schedule: Q04DX003 (ip); vehicle: saline; higher = longer survival
Toxic doses and inconclusive results are not listed.
// T/C lookup, one value per entry

>  <compound>
CC1CC(Cc2cccc3ccccc23)C(=O)O1 (centres undefined)

>  <subject of test>
L1210 leukemia ip in BDF1 mice, survival T/C

>  <result>
94 % of control

$$$$

Report T/C, nothing else, for this compound: CCCCCCC[n+]1cccc(C#N)c1
95 % of control

Return T/C for the following compound: NCCSC1(O)C(=O)c2ccccc2-c2ccccc21 (centres undefined)
95 % of control

Provide measured T/C value, entry: Nc1c(Cl)c(Cl)c(Cl)c(Cl)c1C(=O)O
98 % of control

Values compiled from PubChem BioAssay AID248.
